Listed here are molecules together with their documented IC50.
biological target: PRMT5 (Homo sapiens, UniProt O14744); construct: purchased Viva (custom protein); assay: PRMT5 biochemical IC50 assay with MTA as cofactor; conditions: PRMT5, MTA as cofactor; read-out: MTA IC50
Sequence (O14744 whole entry): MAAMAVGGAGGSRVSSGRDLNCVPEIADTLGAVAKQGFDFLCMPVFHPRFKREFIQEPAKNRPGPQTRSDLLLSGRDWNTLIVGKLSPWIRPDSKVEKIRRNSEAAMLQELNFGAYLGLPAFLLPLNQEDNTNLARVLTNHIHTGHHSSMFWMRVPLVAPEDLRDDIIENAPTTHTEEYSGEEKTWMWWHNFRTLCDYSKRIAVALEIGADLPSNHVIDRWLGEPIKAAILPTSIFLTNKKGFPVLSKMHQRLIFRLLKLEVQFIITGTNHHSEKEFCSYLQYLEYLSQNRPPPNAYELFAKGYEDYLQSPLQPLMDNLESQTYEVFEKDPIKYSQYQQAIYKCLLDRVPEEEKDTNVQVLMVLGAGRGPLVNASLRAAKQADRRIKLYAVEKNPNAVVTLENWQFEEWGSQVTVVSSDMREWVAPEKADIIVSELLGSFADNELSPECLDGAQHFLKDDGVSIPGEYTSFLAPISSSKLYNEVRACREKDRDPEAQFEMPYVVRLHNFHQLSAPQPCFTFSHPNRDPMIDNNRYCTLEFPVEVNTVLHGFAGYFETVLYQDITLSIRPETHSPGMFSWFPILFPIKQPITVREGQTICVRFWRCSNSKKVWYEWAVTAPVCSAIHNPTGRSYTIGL
Sequence (Q9BQA1 whole entry partner): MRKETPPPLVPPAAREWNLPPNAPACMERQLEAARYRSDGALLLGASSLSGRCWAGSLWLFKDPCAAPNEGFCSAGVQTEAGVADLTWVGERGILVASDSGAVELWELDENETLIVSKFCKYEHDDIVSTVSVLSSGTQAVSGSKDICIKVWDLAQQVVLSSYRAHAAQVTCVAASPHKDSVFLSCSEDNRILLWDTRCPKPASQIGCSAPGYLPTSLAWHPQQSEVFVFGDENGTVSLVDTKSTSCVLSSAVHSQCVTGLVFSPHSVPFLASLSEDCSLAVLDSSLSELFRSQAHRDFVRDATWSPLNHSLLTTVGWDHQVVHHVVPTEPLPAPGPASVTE

Molecule | Measurement name | Reported measurement
Cc1cc(NC(=O)C(=O)N2C[C@H](C)CC[C@H]2C2CCCNC2)cnc1N (mixture of isomers) [Compound 744] | IC50 | 50 to 500 nM

The record that follows has no IC50 shown yet.
Ask | Could you share which IC50 value was measured for CC1(C)CCC[C@@H]2CN(C(=O)C(=O)Nc3cncc(C(N)=O)c3)CC[C@H]21 (single isomer, unassigned) [Compound 193] ?
Reply | < 50 nM
